assay.target: Glycogen synthase kinase-3 beta (Homo sapiens)
Sequence (P49841 whole entry): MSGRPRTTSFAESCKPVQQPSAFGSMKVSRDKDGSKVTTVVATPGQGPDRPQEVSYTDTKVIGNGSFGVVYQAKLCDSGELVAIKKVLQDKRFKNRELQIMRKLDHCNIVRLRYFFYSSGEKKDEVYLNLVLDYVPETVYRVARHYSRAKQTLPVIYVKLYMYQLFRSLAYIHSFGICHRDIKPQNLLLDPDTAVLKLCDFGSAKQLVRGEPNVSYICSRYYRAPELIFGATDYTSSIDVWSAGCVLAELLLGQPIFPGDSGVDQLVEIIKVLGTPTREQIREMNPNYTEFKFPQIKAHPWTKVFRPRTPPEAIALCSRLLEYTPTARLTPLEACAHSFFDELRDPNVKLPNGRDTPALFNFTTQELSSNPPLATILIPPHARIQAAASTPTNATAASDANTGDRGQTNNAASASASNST
experiment: concentration-response blocking of human GSK3B – biochemical, luminescence, cell-free homogeneous, retest, dose response (AID 434954)
pEC50: −log10 of the molar value.
Below, each of the molecules is paired with its reported pEC50 value.

{"columns": ["molecule", "recorded.value"],
 "data": [
  ["CCCN1CCN(CCCNC(=O)c2ccc3c(c2)NC(=O)c2ccccc2S3)CC1", "< 3.52"],
  ["CC(N=Nc1nccnc1Cl)c1ccc(Br)cc1 (stereo not drawn)", "< 3.52"],
  ["COc1ccc(OC)c(-c2cc(-c3cccnc3)nc(N)c2C#N)c1", "< 3.52"],
  ["Cc1c(O)c(CN2CCCCC2)cc2c1oc(=O)c1ccccc12", "< 3.52"],
  ["O=C(CSc1n[nH]c(=O)[nH]c1=O)c1ccc(Cl)cc1Cl", "< 3.52"],
  ["N#Cc1c2n(c3c(S)ncnc13)CCCCC2", 6.52]
]}

// pEC50 (Glycogen synthase kinase-3 beta (Homo sapiens)) for CS(=O)(=O)N(CCc1ccccc1)CC(=O)N1CCN(c2ccccc2F)CC1 = < 3.52

GET /values?item= COc1ccc(Nc2nc(NCCCN3CCOCC3)nc(N)c2[N+](=O)[O-])cc1 &system= Glycogen synthase kinase-3 beta (Homo sapiens) returns pEC50: 5.95

The value of pEC50 recorded for Cc1ccc(C(=O)COC(=O)c2ccc(O)cc2)cc1 when tested on Glycogen synthase kinase-3 beta (Homo sapiens) reads < 3.52

Result for CC1(C)CC(=O)C=C(Nc2ccc(Br)cn2)C1 , tested on Glycogen synthase kinase-3 beta (Homo sapiens), pEC50: < 3.52

Item Nc1nc(NCc2ccco2)nc(Nc2ccccc2)c1[N+](=O)[O-] was tested on Glycogen synthase kinase-3 beta (Homo sapiens); the reported pEC50 is < 3.52

Tested on Glycogen synthase kinase-3 beta (Homo sapiens), the item CCOc1ccc(/C=C2\CCCc3c2nc2ccccc2c3C(=O)O)cc1OC showed pEC50 equal to < 3.52

Param item: Nc1nc(NCC2CCCO2)nc(Nc2ccccc2)c1[N+](=O)[O-] (stereo not drawn) ; param system: Glycogen synthase kinase-3 beta (Homo sapiens); output pEC50: 5.66

CC(C)c1c(C(=O)NN=Cc2ccoc2)nnn1-c1nonc1N tested on Glycogen synthase kinase-3 beta (Homo sapiens) gave pEC50: < 3.52

The measured pEC50 that COc1ccc(C=C2SC(Nc3ccccc3)=NC2=O)cc1 showed for Glycogen synthase kinase-3 beta (Homo sapiens) is < 3.52

The recorded pEC50 with Glycogen synthase kinase-3 beta (Homo sapiens) for O=C(CSc1ncnc2c1cnn2-c1ccc(F)cc1)NCC1CCCO1 (stereo not drawn) was < 3.52

# O=C(O)c1cccc(Nc2nc(-c3ccccc3)nc3ccccc23)c1 with Glycogen synthase kinase-3 beta (Homo sapiens): pEC50 is < 3.52

The molecule Cc1c(Cl)cccc1Nc1ccccc1C(=O)O , tested on Glycogen synthase kinase-3 beta (Homo sapiens), showed pEC50 of < 3.52

Record COc1ccc(CN(CC(=O)NCc2ccc(F)cc2)C(=O)CCC(=O)Nc2ccccn2)cc1 has Glycogen synthase kinase-3 beta (Homo sapiens) pEC50 equal to < 3.52

Observed pEC50, Glycogen synthase kinase-3 beta (Homo sapiens), COc1ccc(N(C(=O)c2ccncc2)S(=O)(=O)c2cccc([N+](=O)[O-])c2)cc1 : < 3.52
